# Test system: tet operator sequence
# Assay Summary: β-galactosidase activity of a tetracycline-regulated promoter in transformed E. coli with revTetR, in the presence and absence of anhydrotetracycline (atc)
# Assay type: cell-based, Escherichia coli
# Conditions Used: RevTetR isolate cultured in the absence of anhydrotetracycline (ATC)
Attribute Measured: β-Galactosidase Activity, Cultured Without ATC

1) TetRrev4/6-27: revTetR(BD) V99R (protein, Modified tetracycline repressor, revTetR(BD) V99R) MSRLDKSKVINSALELLNEVGIEGLTTRKLAQKLGVEQPTLYWHVKNKRALLDALAVEILARHHDYSLPAAGESWQSFLRNNAMSFRRALLRYRDGAKRHLGTRPDEKQYDTVETQLRFMTENGFSLRDGLYAISAVSHFTLGAVLEQQEHTAALTDRPAAPDENLPPLLREALQIMDSDDGEQAFLHGLESLIRGFEVQLTALLQIV    108
2) TetRrevDox4-1: revTetR(BD) D53E A54S A61P (protein, Modified tetracycline repressor, revTetR(BD) D53E A54S A61P) MSRLDKSKVINSALELLNEVGIEGLTTRKLAQKLGVEQPTLYWHVKNKRALLESLAVEILPRHHDYSLPAAGESWQSFLRNNAMSFRRALLRYRDGAKVHLGTRPDEKQYDTVETQLRFMTENGFSLRDGLYAISAVSHFTLGAVLEQQEHTAALTDRPAAPDENLPPLLREALQIMDSDDGEQAFLHGLESLIRGFEVQLTALLQIV    36.03
3) TetRrev28/41: revTetR(BD) L17L N18D V20R I22N (protein, Modified tetracycline repressor, revTetR(BD) L17L N18D V20R I22N) MSRLDKSKVINSALELLDERGNEGLTTRKLAQKLGVEQPTLYWHVKNKRALLDALAVEILARHHDYSLPAAGESWQSFLRNNAMSFRRALLRYRDGAKVHLGTRPDEKQYDTVETQLRFMTENGFSLRDGLYAISAVSHFTLGAVLEQQEHTAALTDRPAAPDENLPPLLREALQIMDSDDGEQAFLHGLESLIRGFEVQLTALLQIV    15.4643
4) TetRrev4/6-10: revTetR(BD) A56S V99E (protein, Modified tetracycline repressor, revTetR(BD) A56S V99E) MSRLDKSKVINSALELLNEVGIEGLTTRKLAQKLGVEQPTLYWHVKNKRALLDALSVEILARHHDYSLPAAGESWQSFLRNNAMSFRRALLRYRDGAKEHLGTRPDEKQYDTVETQLRFMTENGFSLRDGLYAISAVSHFTLGAVLEQQEHTAALTDRPAAPDENLPPLLREALQIMDSDDGEQAFLHGLESLIRGFEVQLTALLQIV    97.964
5) TetRrev29/52: revTetR(BD) L14V L17V N18K V20V G24G (protein, Modified tetracycline repressor, revTetR(BD) L14V L17V N18K V20V G24G) MSRLDKSKVINSAVELVKEVGIEGLTTRKLAQKLGVEQPTLYWHVKNKRALLDALAVEILARHHDYSLPAAGESWQSFLRNNAMSFRRALLRYRDGAKVHLGTRPDEKQYDTVETQLRFMTENGFSLRDGLYAISAVSHFTLGAVLEQQEHTAALTDRPAAPDENLPPLLREALQIMDSDDGEQAFLHGLESLIRGFEVQLTALLQIV    48.4964
6) TetRrevAtc4-52: revTetR(BD) D53F A54T L55M I59S H63Q (protein, Modified tetracycline repressor, revTetR(BD) D53F A54T L55M I59S H63Q) MSRLDKSKVINSALELLNEVGIEGLTTRKLAQKLGVEQPTLYWHVKNKRALLFTMAVESLARQHDYSLPAAGESWQSFLRNNAMSFRRALLRYRDGAKVHLGTRPDEKQYDTVETQLRFMTENGFSLRDGLYAISAVSHFTLGAVLEQQEHTAALTDRPAAPDENLPPLLREALQIMDSDDGEQAFLHGLESLIRGFEVQLTALLQIV    105.367
7) TetRrev96/99-9: revTetR(BD) G96H V99N (protein, Modified tetracycline repressor, revTetR(BD) G96H V99N) MSRLDKSKVINSALELLNEVGIEGLTTRKLAQKLGVEQPTLYWHVKNKRALLDALAVEILARHHDYSLPAAGESWQSFLRNNAMSFRRALLRYRDHAKNHLGTRPDEKQYDTVETQLRFMTENGFSLRDGLYAISAVSHFTLGAVLEQQEHTAALTDRPAAPDENLPPLLREALQIMDSDDGEQAFLHGLESLIRGFEVQLTALLQIV    71.6829
8) TetRrev6-23: revTetR(BD) D95E A97E (protein, Modified tetracycline repressor, revTetR(BD) D95E A97E) MSRLDKSKVINSALELLNEVGIEGLTTRKLAQKLGVEQPTLYWHVKNKRALLDALAVEILARHHDYSLPAAGESWQSFLRNNAMSFRRALLRYREGEKVHLGTRPDEKQYDTVETQLRFMTENGFSLRDGLYAISAVSHFTLGAVLEQQEHTAALTDRPAAPDENLPPLLREALQIMDSDDGEQAFLHGLESLIRGFEVQLTALLQIV    101
9) TetRrevAD2/12: revTetR(BD) E23H D53Y A56A E58Q I59T (protein, Modified tetracycline repressor, revTetR(BD) E23H D53Y A56A E58Q I59T) MSRLDKSKVINSALELLNEVGIHGLTTRKLAQKLGVEQPTLYWHVKNKRALLYALAVQTLARHHDYSLPAAGESWQSFLRNNAMSFRRALLRYRDGAKVHLGTRPDEKQYDTVETQLRFMTENGFSLRDGLYAISAVSHFTLGAVLEQQEHTAALTDRPAAPDENLPPLLREALQIMDSDDGEQAFLHGLESLIRGFEVQLTALLQIV    73.5981
10) TetRrevAF2/16: revTetR(BD) E19V Y93C D95Y A97T K98N V99L L101L (protein, Modified tetracycline repressor, revTetR(BD) E19V Y93C D95Y A97T K98N V99L L101L) MSRLDKSKVINSALELLNVVGIEGLTTRKLAQKLGVEQPTLYWHVKNKRALLDALAVEILARHHDYSLPAAGESWQSFLRNNAMSFRRALLRCRYGTNLHLGTRPDEKQYDTVETQLRFMTENGFSLRDGLYAISAVSHFTLGAVLEQQEHTAALTDRPAAPDENLPPLLREALQIMDSDDGEQAFLHGLESLIRGFEVQLTALLQIV    90.6438
